meta.source: PubChem BioAssay (NCI)

Test system: SF-268 CNS
PROCEDURE TEXT: NCI-60 one-dose screen, 48 h (100 = growth as untreated, 0 = no growth, -100 = all killed)
CONDITION DETAILS: 10 µM unless noted
The panel holds about 83,000 compounds, 20% with a hit somewhere; the sample as a whole holds those more often.
REPORTED ENDPOINT: growth (%)
Answers are plain numbers, in %.

{"COMPOUND": "C=C(c1ccc(OC)c(/C=C/C(=O)c2ccc3c(c2)OCO3)c1)c1cc(OC)c(OC)c(OC)c1", "REPORTED ENDPOINT": "growth", "MEASURED": 19.3}
{"COMPOUND": "Nc1nc2c(c3ncccc13)C(c1cccc(Cl)c1)Cc1ncccc1-2 (stereo not given)", "REPORTED ENDPOINT": "growth", "MEASURED": 45.6}
{"COMPOUND": "C=C(C)[C@@H]1CC[C@]2(COC(C)=O)CC[C@]3(C)[C@H](CC[C@@H]4[C@@]5(C)CCCN(C(C)=O)C(C)(C)[C@@H]5CC[C@]43C)[C@@H]12", "REPORTED ENDPOINT": "growth", "MEASURED": 90.9}
{"COMPOUND": "COc1ccc(C[n+]2c3ccccc3n3c4ccc(N)cc4ccc32)c(OC)c1OC", "REPORTED ENDPOINT": "growth", "MEASURED": 35}

Ask | Query for SF-268 CNS: what growth does the record show for CN(Cc1ccccc1)c1nc(Cl)c(C2CC(c3ccccc3)=NN2c2ccccc2)s1 (stereo not given) ?
Reply | 86.6

###

System: SF-295 CNS
PROCEDURE TEXT: NCI-60 one-dose screen, 48 h
CONDITION DETAILS: 10 µM unless noted
This is part of a sample that, as a whole, favours compounds with a hit. Of some 83,000 tested, about 20% had one in any assay. The source made the active and inactive calls. How the source made its calls: active means growth percent below 10; inactive means the rest.
Select the matching outcome among active, inactive

{"MOLECULE": "C=C(CNCCO)[C@@H]1CC[C@]2(CO)CC[C@]3(C)[C@H](CC[C@@H]4[C@@]5(C)CCC(N)C(C)(C)[C@@H]5CC[C@]43C)[C@@H]12 (stereo not given in full)", "ASSIGNED LABEL": "inactive"}
{"MOLECULE": "CC1(C)CC[C@]2(C(=O)N[C@H](CO)Cc3ccccc3)CC[C@]3(C)C(=CC[C@@H]4[C@@]5(C)CCCNC(C)(C)[C@@H]5CC[C@]43C)[C@@H]2C1", "ASSIGNED LABEL": "inactive"}
{"MOLECULE": "CSc1nn2c(-c3ccc4ccccc4c3)ccnc2c1C#N", "ASSIGNED LABEL": "active"}
{"MOLECULE": "CCCCCCCC/C=C\\CCCCCCCCOc1ccc(CC(=O)NCC[N+]2(C)CCOCC2)cc1", "ASSIGNED LABEL": "inactive"}
{"MOLECULE": "CN(C)CCCNC(=O)c1cncnc1Nc1ccc(OCc2cccc(F)c2)c(Cl)c1", "ASSIGNED LABEL": "inactive"}
{"MOLECULE": "COC(=O)c1c2c(n3ccccc13)C(=O)c1ccccc1C2=O", "ASSIGNED LABEL": "inactive"}

Ask | Which outcome was entered for the molecule O=C(C1=Cc2cc3ccccc3n2Cc2cnnn21)c1ccc(O)cc1 in this test?
Reply | inactive

Ask | Likewise for CCN(CC)CCN1C(=O)c2c(c(C)c3c(oc4ccc(OC)cc43)c2C)C1=O ?
Reply | inactive

Ask | Likewise for CCOC(=O)c1nn(CC(O)c2ccccc2)c(NC(=O)Nc2cccc(F)c2)c1C (stereo not given) ?
Reply | inactive

Ask | Likewise for C=CCN1C(=O)c2cccc3c(N4CCOCC4)ccc(c23)C1=O ?
Reply | active
